Provenance of the data: paper PMC10373461

molecular target: Trypanosoma cruzi spermidine synthase (TcSpdSyn) (Trypanosoma cruzi); construct: gene Tc00.1047053510339.50; assay: X-ray co-crystal structure; SSAT1-coupled enzyme inhibition assay (hydrochloride salt); assay type: biochemical
PROPERTY_NAME: IC50 (µM)

- COc1ccc(Nc2ccnc3ccccc23)cc1: 43.4

====

molecular target: Trypanosoma cruzi spermidine synthase (TcSpdSyn) (Trypanosoma cruzi, UniProt Q4DA73); construct: gene Tc00.1047053510339.50; assay: X-ray co-crystal structure; SSAT1-coupled enzyme inhibition assay; assay type: biochemical
Sequence (Q4DA73 1-296): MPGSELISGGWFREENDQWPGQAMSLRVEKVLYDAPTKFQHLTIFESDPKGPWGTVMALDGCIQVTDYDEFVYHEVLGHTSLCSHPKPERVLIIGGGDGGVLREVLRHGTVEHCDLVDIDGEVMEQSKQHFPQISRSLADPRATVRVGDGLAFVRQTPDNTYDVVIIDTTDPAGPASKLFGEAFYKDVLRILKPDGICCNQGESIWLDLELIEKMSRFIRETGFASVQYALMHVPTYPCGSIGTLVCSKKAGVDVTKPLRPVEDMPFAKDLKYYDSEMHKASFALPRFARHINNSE
pIC50: −log10 of the molar value.
PROPERTY_NAME: pIC50

- COc1ccc(C2=N[C@H](C)CN2)c(O)c1: 4.08
